Biodistribution values by entry
# Tested on: Rattus norvegicus
# procedure-summary: Evaluated for biodistribution in rat blood after 1 min of administration
# Assay type: ADME, organism-based
# cond: in vivo
Give your result as the value with the unit written after it.

Sample answers from the record:
{"structure-smiles-string": "Ic1ccc(CN2CCCCC2)cc1CN1CCCCC1", "Biodistribution": "1.6%"}
{"structure-smiles-string": "CN(C)Cc1ccc(I)c(CN(C)C)c1", "Biodistribution": "0.83%"}
{"structure-smiles-string": "CC(C)NCc1ccc(I)c(CNC(C)C)c1", "Biodistribution": "1.76%"}

Exercise: Value lookup for Biodistribution; key = `CN(C)Cc1ccccc1I`
Key: 1.35%

----------
# System: Rattus norvegicus
# procedure-summary: Evaluated for biodistribution in rat lung after 2 min of administration
# Format: ADME, organism-based
# cond: in vivo
value-type: Biodistribution (%)
Answer in %, number only, no unit symbol.

{"structure-smiles-string": "CC(C)NCc1ccc(I)c(CNC(C)C)c1", "Biodistribution / %": 31.98}
{"structure-smiles-string": "CN(C)Cc1ccc(I)c(CN(C)C)c1", "Biodistribution / %": 22.63}
{"structure-smiles-string": "CN(C)Cc1ccccc1I", "Biodistribution / %": 2.9}

Exercise: I am curious: what Biodistribution value has been reported for `Ic1ccc(CN2CCCCC2)cc1CN1CCCCC1` ?
Key: 26.54

----------
# System: Rattus norvegicus
# procedure-summary: Evaluated for biodistribution in rat thyroid after 6 min of administration
# Assay type: ADME, organism-based, Thyroid gland
# cond: in vivo, 0.1 h
Reported Biodistribution values are given for each entry in this list.
Give just the number in %; leave the unit off.

Sample records with Biodistribution:
{"structure-smiles-string": "CN(C)Cc1ccc(I)c(CN(C)C)c1", "units-label": "%", "data-value": 0.14}
{"structure-smiles-string": "Ic1ccc(CN2CCCCC2)cc1CN1CCCCC1", "units-label": "%", "data-value": 0.11}
{"structure-smiles-string": "CC(C)NCc1ccc(I)c(CNC(C)C)c1", "units-label": "%", "data-value": 0.45}

# ---- query molecule ----
Exercise: Form entry - test system: Rattus norvegicus; read-out: Biodistribution; molecule: `CN(C)Cc1ccccc1I`
Key: 0.035

----------
Measured Biodistribution values are reported for all entries that follow.
# System: Rattus norvegicus
# procedure-summary: Evaluated for biodistribution in rat liver after 1 min of administration
# Format: ADME, organism-based
# cond: in vivo
The response must be a number in % with no trailing unit.

{"structure-smiles-string": "CN(C)Cc1ccccc1I", "Biodistribution, %": 1.92}

Exercise: # lookup: Biodistribution of `Ic1ccc(CN2CCCCC2)cc1CN1CCCCC1`
Key: 13.51

Exercise: Same thing, different compound: `CC(C)NCc1ccc(I)c(CNC(C)C)c1`
Key: 8.38

Exercise: Continue with `CN(C)Cc1ccc(I)c(CN(C)C)c1`
Key: 18.31

----------
Items are presented alongside their recorded Biodistribution.
# Tested on: Rattus norvegicus
# procedure-summary: Evaluated for biodistribution in rat thyroid after 2 min of administration
# Assay type: ADME, organism-based, Thyroid gland
# cond: in vivo
Quick reminder: number only, in %, skip the unit.

{"structure-smiles-string": "Ic1ccc(CN2CCCCC2)cc1CN1CCCCC1", "Biodistribution (%)": 0.22}
{"structure-smiles-string": "CC(C)NCc1ccc(I)c(CNC(C)C)c1", "Biodistribution (%)": 0.18}
{"structure-smiles-string": "CN(C)Cc1ccc(I)c(CN(C)C)c1", "Biodistribution (%)": 0.28}

// next entry
Exercise: For `CN(C)Cc1ccccc1I` , what is its reported Biodistribution?
Key: 0.11

FYI, the data here is from ChEMBL document CHEMBL1122101.
